B1: library; a variant is named by its letters at X, in order (parent)
chain: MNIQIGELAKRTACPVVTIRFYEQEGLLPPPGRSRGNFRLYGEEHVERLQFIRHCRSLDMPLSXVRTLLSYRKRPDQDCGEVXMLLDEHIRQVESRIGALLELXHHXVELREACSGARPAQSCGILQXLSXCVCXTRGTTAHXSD

- Variants of: B1
- METHOD: sfGFP reporter fluorescence (15 h) (µM FITC); higher = stronger transcriptional activation
- CONDITION DETAILS: library round: Round 3; ligand: 1 µM Pb

{"RESIDUE CODES": "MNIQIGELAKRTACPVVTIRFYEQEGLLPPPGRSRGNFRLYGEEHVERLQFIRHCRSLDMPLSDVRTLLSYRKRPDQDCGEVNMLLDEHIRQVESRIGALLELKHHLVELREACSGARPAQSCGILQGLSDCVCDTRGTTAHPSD [DNKLGDDP]", "sfGFP reporter fluorescence": 0.0516}
{"RESIDUE CODES": "MNIQIGELAKRTACPVVTIRFYEQEGLLPPPGRSRGNFRLYGEEHVERLQFIRHCRSLDMPLSKVRTLLSYRKRPDQDCGEVFMLLDEHIRQVESRIGALLELVHALVELREACSGARPAQSCGILQGLSDCVCDTRGTTAHASD [KFVLGDDA H106A]", "sfGFP reporter fluorescence": 0.541}
{"RESIDUE CODES": "MNIQIGELAKRTACPCVTIRFYEQEGLLPPPGRSRGNFRLYGEEHVERLQFIRCPRSLDMPLSLVRTLLSYRKRPDQDCGEVIMLLDEHIRQVESRIGALLELLHACVELREACSGARPAQSCGILQGLSACVCATRGTTAHCSD [LILCGAAC V16C H54C C55P H106A]", "sfGFP reporter fluorescence": 0.0421}
{"RESIDUE CODES": "MNIQIGELAKRTACPCVTIRFYEQEGLLPPPGRSRGNFRLYGEEHVERLQFIRCPRSLDMPLSLVRTLLSYRKRPDQDCGEVIMLLDEHIRQVESRIGALLELVHLCVELREACSGARPAQSCGILQGLSACVCATRGTTAHPSD [LIVCGAAP V16C H54C C55P H106L]", "sfGFP reporter fluorescence": 0.0427}
{"RESIDUE CODES": "MNIQIGELAKRTACPVVTIRFYEQEGLLPPPGRSRGNFRLYGEEHVERLQFIRHCRSLDMPLSDVRTLLSYRKRPDQDCGEVTMLLDEHIRQVESRIGALLELKHHLLELREACSGARPAASCGILQGLSSCVCPTRGTTAHPSD [DTKLGSPP V108L Q121A]", "sfGFP reporter fluorescence": 0.2}
{"RESIDUE CODES": "MNIQIGELAKRTACPVVTIRFYEQEGLLPPPGRSRGNFRLYGEEHVERLQFIRHCRSLDMPLSDVRTLLSYRKRPDQDCGEVTMLLDEHIRQVESRIGALLELKHHLVLLREACSGARPAQSCGILQGLSDCVCRTRGTTAHRSD [DTKLGDRR E109L]", "sfGFP reporter fluorescence": 0.103}
{"RESIDUE CODES": "MNIQIGELAKRTACPVVTIRFYEQEGLLPPPGRSRGNFRLYGEEHVERLQFIRHCRSLDMPLSDVRTLLSYRKRPDQDCGEVTMLLDEHIRQVESRIGALLELKHHCVELREACSGARPAQSCAILQMLSDCVCATRGTTAHPSD [DTKCMDAP G124A]", "sfGFP reporter fluorescence": 1.58}
{"RESIDUE CODES": "MNIQIGELAKRTACPVVTIRFYEQEGLLPPPGRSRGNFRLYGEEHVERLQFIRHCRSLDMPLSDVRTLLSYRKRPDQDCGEVNMLLDEHIRQVESRIGALLELRHHCVELREACSGARPAQSCAILQILSDCVCATRGTTAHKSD [DNRCIDAK G124A]", "sfGFP reporter fluorescence": 1.51}
{"RESIDUE CODES": "MNIQIGELAKRTACPVVTIRFYEQEGLLPPPGRSRGNFRLYGEEHVERLQFIRHCRSLDLNLSNVRTLLSYRKRPDQDCGEVNMLLDEHIRQVESRIGALLELKHHCVELREACSGARPAQSCGILQMLSDCVCDTRGTTAHPSD [NNKCMDDP M60L P61N]", "sfGFP reporter fluorescence": 3.55}
{"RESIDUE CODES": "MNIQIGELAKRTACPVVTIRFYEQEGLLPPPGRSRGNFRLYGEEHVERLQFIRHCRSLDMNISKVRTLLSYRKRPDQDCGEVNMLLDEHIRQVESRIGALLELKHHLEELREACSGARPAQSCGILQGLSDCVCATRGTTAHPSD [KNKLGDAP P61N L62I V108E]", "sfGFP reporter fluorescence": 0.275}
{"RESIDUE CODES": "MNIQIGELAKRTACPVVTIRFYEQEGLLPPPGRSRGNFRLYGEEHVERLQFIRHCRSLDMPLSDVRTLLSYRKRPDQDCGEVTMLLDEHIRQVESRIGALLELKHHLLELREACSGARPAASCGILQGLSCCVCDTRGTTAHPSD [DTKLGCDP V108L Q121A]", "sfGFP reporter fluorescence": 0.117}
{"RESIDUE CODES": "MNIQIGELAKRTACPCVTIRFYEQEGLLPPPGRSRGNFRLYGEEHVERLQFIRCPRSLDMPLSLVRTLLSYRKRPDQDCGAVIMLLDEHIRQVESRIGALLELLHACVELREACSGARPAQSCGILQGLSACVCATRGTTAHCSD [LILCGAAC V16C H54C C55P E81A H106A]", "sfGFP reporter fluorescence": 0.0414}
{"RESIDUE CODES": "MNIQIGELAKRTACPVVTIRFYEQEGLLPPPGRSRGNFRLYGEEHVERLQFIRHCRSLDMPLSKVRTLLSYRKRPDQDCGEVIMLLDEHIRQVESRIGALLELVHHCVELREACSGARPAQSCGILQMLSDCVCDTRGTTAHPSD [KIVCMDDP]", "sfGFP reporter fluorescence": 1.96}
{"RESIDUE CODES": "MNIQIGELAKRTACPVVTIRFYEQEGLLPPPGRSRGNFRLYGEEHVERLQFIRHCRSLDMPLSDVRTLLSYRKRPDQDCGEVNMLLDEHIRQVESRIGALLELKHHLVELREACSGARPAQSCGILQGLSACACPTRGTTAHYSD [DNKLGAPY V133A]", "sfGFP reporter fluorescence": 0.174}
{"RESIDUE CODES": "MNIQIGELAKRTACPVVTIRFYEQEGLLPPPGRSRGNFRLYGEEHVERLQFIRHCRSLDMPLSKVRTLLSYRKRPDQDCGEVNMLLDEHCRQVESRIGALLELVHALVELREACSGARPAQSCGILQGLSDCVCDTRGTTAHRSD [KNVLGDDR I90C H106A]", "sfGFP reporter fluorescence": 0.502}
{"RESIDUE CODES": "MNIQIGELAKRTACPCVTIRFYEQEGLLPPPGRSRGNFRLYGEEHVERLQFIRHCRSLDMPLSKVRTLLSYRKRPDQDCGEVNMLLDEHIRQVESRIGALLELVHHCVELREACSGARPAQSCGILQMLSDCVCDTRGTTAHPSD [KNVCMDDP V16C]", "sfGFP reporter fluorescence": 3.46}
{"RESIDUE CODES": "MNIQIGELAKRTACPVVTIRFYEQEGLLPPPGRSRGNFRLYGEEHVERLQFIRHCRSLDMNLSDVRTLLSYRKRPDQDCGEVNMLLDEHIRQVESRIGALLELKHHCVELREACSGARPAQSCGILQMLSDCVCATRGTTAHKSD [DNKCMDAK P61N]", "sfGFP reporter fluorescence": 2.76}
{"RESIDUE CODES": "MNIQIGELAKRTACPCVTIRFYEQEGLLPPPGRSRGNFRLYGEEHVERLQFIRHCRSLDVPLSLVRTLLSYRKRPDQDCGAVIMLLDEHIRQVESRIGALLELKHHLVELAEACSGARPAQSCGILQGLSDCVCDTRGTTAHPSD [LIKLGDDP V16C M60V E81A R111A]", "sfGFP reporter fluorescence": 0.0783}
{"RESIDUE CODES": "MNIQIGELAKRTACPVVTIRFYEQEGLLPPPGRSRGNFRLYGEEHVERLQFIRHCRSLDMPLSDVRTLLSYRKRPDQDCGEVSMLLDEHIRQVESRIGALLELKHHLLELREACSGARPAQSCGILQGLSMCVCATRGTTAHPSD [DSKLGMAP V108L]", "sfGFP reporter fluorescence": 0.0646}
{"RESIDUE CODES": "MNIQIGELAKRTACPCVTIRFYEQEGLLPPPGRSRGNFRLYGEEHVERLQFIRCPRSLDMPLSLVRTLLSYRKRPDQDCGEVCMLLDEHIRQVESRIGALLELKHLCVELREACSGARPAQSCGILQGLSACVCATRGTTAHPSD [LCKCGAAP V16C H54C C55P H106L]", "sfGFP reporter fluorescence": 0.044}
{"RESIDUE CODES": "MNIQIGELAKRTACPVVTIRFYEQEGLLPPPGRSRGNFRLYGEEHVERLQFIRHCRSLDMPLSDVRTLLSYRKRPDQDCGEVNMLLDEHIRQVESRIGALLELKHHCVELREACSGARPAQSCGILQGLSACVCATRGTTAHYSD [DNKCGAAY]", "sfGFP reporter fluorescence": 2.12}
{"RESIDUE CODES": "MNIQIGELAKRTACPVVTIRFYEQEGLLPPPGRSRGNFRLYGEEHVERLQFIRHCRSLDLNLSDVRTLLSYRKRPDQDCGEVNMLLDEHIRQVESRIGALLELRHHCVELREACSGARPAQSCGILQILSDCVCDTRGTTAHPSD [DNRCIDDP M60L P61N]", "sfGFP reporter fluorescence": 1.53}
{"RESIDUE CODES": "MNIQIGELAKRTACPCVTIRFYEQEGLLPPPGRSRGNFRLYGEEHVERLQFIRHCRSLDMNLSKVRTLLSYRKRPDQDCGEVNMLLDEHIRQVESRIGALLELVHHCVELREACSGARPAQSCGILQMLSDCVCDTRGTTAHPSD [KNVCMDDP V16C P61N]", "sfGFP reporter fluorescence": 0.636}
{"RESIDUE CODES": "MNIQIGELAKRTACPVVTIRFYEQEGLLPPPGRSRGNFRLYGEEHVERLQFIRHCRSLDMPLSDVRTLLSYRKRPDQDCGEVTMLLDEHIRQVESRIGALLELKHHLVELREACSGARPAASCGILQGLSSCVCDTRGTTAAPSD [DTKLGSDP Q121A H142A]", "sfGFP reporter fluorescence": 0.106}
{"RESIDUE CODES": "MNIQIGELAKRTACPVVTIRFYEQEGLLPPPGRSRGNFRLYGEEHVERLQFIRHCRSLDLPLSKVRTLLSYRKRPDQDCGEVNMLLDEHIRQVESRIGALLELVHHCVELREACSGARPAQSCGILQMLSDCVCDTRGTTAHPSD [KNVCMDDP M60L]", "sfGFP reporter fluorescence": 3.58}
{"RESIDUE CODES": "MNIQIGELAKRTACPVVTIRFYEQEGLLPPPGRSRGNFRLYGEEHVERLQFIRHCRSLDLPLSKVRTLLSYRKRPDQDCGAVNMLLDEHIRQVESRIGALLELVHHCVELREACSGARPAQSCGILQGLSDCVCDTRGTTAHPSD [KNVCGDDP M60L E81A]", "sfGFP reporter fluorescence": 3.41}
{"RESIDUE CODES": "MNIQIGELAKRTACPVVTIRFYEQEGLLPPPGRSRGNFRLYGEEHVERLQFIRHCRSLDMPLSDVRTLLSYRKRPDQDCGEVNMLLEEHIRQVESRIGALLELRHHCVELREACSGARPAQSCGILQMLSDCVCATRGTTAHKSD [DNRCMDAK D87E]", "sfGFP reporter fluorescence": 2.46}
{"RESIDUE CODES": "MNIQIGELAKRTACPVVTIRFYEQEGLLPPPGRSRGNFRLYGEEHVERLQFIRHCRSLDMPLSDVRTLLSYRKRPDQDCGEVNMLLDEHIRQVESRIGALLELRHHLVLLREACSGARPAQSCGILQHLSCCVCDTRGTTAHLSD [DNRLHCDL E109L]", "sfGFP reporter fluorescence": 0.094}
{"RESIDUE CODES": "MNIQIGELAKRTACPVVTIRFYEQEGLLPPPGRSRGNFRLYGEEHVERLQFIRHCRSLDMPLSDVRTLLSYRKRPDQDCGEVNMLLDEHIRQVESRIGALLELKHHCVELREACSGARPAQSCGILQGLSSCVCATRGTTAHYSD [DNKCGSAY]", "sfGFP reporter fluorescence": 2.1}
{"RESIDUE CODES": "MNIQIGELAKRTACPCVTIRFYEQEGLLPPPGRSRGNFRLYGEEHVERLQFIRHCRSLDMPLSKVRTLLSYRKRPDQDCGEVCMLLDEHIRQVESRIGALLELVHHCVELREACSGARPAQSCGILQMLSDCVCDTRGTTAHPSD [KCVCMDDP V16C]", "sfGFP reporter fluorescence": 1.75}
